study_system: PTPN3 PDZ domain (PTPN3-PDZ) (human, UniProt P26045-1 510-582, Limits taken from the PDB 6HKS/8OEP/8CQY entity (offset 483, N-terminal GAMGS tag remnant left out); the end at 597 agrees with the printed linker start at 598. 15N-labelled for NMR.)
Sequence (P26045 510-582): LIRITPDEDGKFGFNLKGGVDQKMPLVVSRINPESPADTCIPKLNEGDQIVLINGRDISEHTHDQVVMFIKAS
test_protocol: NMR titration; 1H,15N HSQC chemical shift perturbations of 15N-labelled PTPN3-PDZ (117 μM); PBM-TACE added stepwise, PDZ:peptide 1:0 to 1:8.5, 11 points; 15°C; 50 mM Tris/HCl pH 7.5, 150 mM NaCl, 0.5 mM TCEP, 5% D2O; 1:1 model, 14 peaks
test_conditions: both partners purified
measurement_type: pKd
The scale used: pKd is minus the common logarithm of the concentration in molar units.

Entry under review: RQNRVDSKETEC (last C-terminal 12 residues of TACE (tumor necrosis factor alpha-convertase, ADAM17), encompassing the PBM; also called PBM of the tumor necrosis factor-alpha converting enzyme; source: synthetic peptide (solid phase, Fmoc; Proteogenix)) [PBM-TACE peptide (last C-terminal 12 residues of TACE)] . Reported pKd?
4.52
